# ASSAY_SUMMARY: yeast display, Sf9 membrane polyspecificity reagent, FACS + sequencing; frameworks hold sequencing errors

BIOSEQUENCE: QVQLVESGGGLVQAGGSLRLSCAASGSIFTHNAMGSYRQAPGKERELVAAISSGGSTNYADSVKGRFTISRDNAMNTVYLQMNSLKPDDTAVYYCAISIDGWYWRRRRYDYWGQGTQVTVSS
polyreactivity (PSR sort gate): low polyreactivity

BIOSEQUENCE: QVQLVESGGALVQAGGSLRLSCAASGSTFYYYAMGWYRQAPGKEREFVAAISGGDGTTSYADSVKGRFTISRDNAKKTVYLQMNSLKPEDTAFYYCASPYTSYLYGYDYWGQGTQVTVSS
polyreactivity (PSR sort gate): low polyreactivity

BIOSEQUENCE: QVQLVESGGGLVQAGGSLRLICAASGFTFAYYAMGWYRQAPGKERELVAAISSGGSTYYADSVKGRFTISRDNAKNTVYLQMNSLKPEDTAVYYCAARGGRPLIHHWPWYSWKYDYWGQGTQVTVSS
polyreactivity (PSR sort gate): low polyreactivity

BIOSEQUENCE: QVQLVESGGGLVQEGGSLRLTCAASGIIFTINAMGWYRQAPGKERELVAAIYWGTGTTYYADSVKGRFTISRDNAKNTVYLQMNSLKPEDTAVYYCAADGYDTYGYWGQGTQVTVSS
polyreactivity (PSR sort gate): low polyreactivity
